This section presents compounds with their documented Ki values.
# ASSAY TARGET: α2AAR (Homo sapiens, UniProt P08913)
# Construct: host or cells: HEK293 (membranes)
# Sequence (P08913 whole entry, species assumed): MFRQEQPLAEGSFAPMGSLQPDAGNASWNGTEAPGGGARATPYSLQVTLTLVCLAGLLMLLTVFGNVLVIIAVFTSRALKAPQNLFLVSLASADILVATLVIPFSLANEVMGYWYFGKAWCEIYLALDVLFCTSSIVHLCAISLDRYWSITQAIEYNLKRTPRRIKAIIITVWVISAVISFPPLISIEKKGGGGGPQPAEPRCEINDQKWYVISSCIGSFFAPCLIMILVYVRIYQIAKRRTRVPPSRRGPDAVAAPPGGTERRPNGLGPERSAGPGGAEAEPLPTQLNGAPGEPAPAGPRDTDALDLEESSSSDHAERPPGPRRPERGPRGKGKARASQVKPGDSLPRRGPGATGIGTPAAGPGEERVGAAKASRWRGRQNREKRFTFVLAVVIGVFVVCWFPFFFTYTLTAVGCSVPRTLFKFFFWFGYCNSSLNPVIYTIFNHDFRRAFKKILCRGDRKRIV
# ASSAY INFO: α2AAR binding assay ([3H]-RX 821002 radioligand)
# CONDITIONS USED: α2A affinity (Ki, nM)
READOUT LABEL: Ki

| COMPOUND | READOUT LABEL | RESULT |
| --- | --- | --- |
| Cc1cccc(C(CCCNS(C)(=O)=O)c2c[nH]cn2)c1C (centres unmarked) | Ki | 250 to 1000 nM |
| Cc1cccc(C(c2cnc[nH]2)C2CCc3ccc(O)cc32)c1C (single isomer, unassigned) [100-A] | Ki | < 10 nM |
| Cc1cccc(C(c2cnc[nH]2)C2CCc3ccc(O)cc32)c1C (single isomer, unassigned) [100-B] | Ki | 50 to 250 nM |
| Cc1cccc(C(CCCCCNS(C)(=O)=O)c2c[nH]cn2)c1C (centres unmarked) | Ki | 50 to 250 nM |
| Cc1cccc(C(COCCNS(C)(=O)=O)c2c[nH]cn2)c1C (centres unmarked) | Ki | 250 to 1000 nM |
